Protein target, amino acids: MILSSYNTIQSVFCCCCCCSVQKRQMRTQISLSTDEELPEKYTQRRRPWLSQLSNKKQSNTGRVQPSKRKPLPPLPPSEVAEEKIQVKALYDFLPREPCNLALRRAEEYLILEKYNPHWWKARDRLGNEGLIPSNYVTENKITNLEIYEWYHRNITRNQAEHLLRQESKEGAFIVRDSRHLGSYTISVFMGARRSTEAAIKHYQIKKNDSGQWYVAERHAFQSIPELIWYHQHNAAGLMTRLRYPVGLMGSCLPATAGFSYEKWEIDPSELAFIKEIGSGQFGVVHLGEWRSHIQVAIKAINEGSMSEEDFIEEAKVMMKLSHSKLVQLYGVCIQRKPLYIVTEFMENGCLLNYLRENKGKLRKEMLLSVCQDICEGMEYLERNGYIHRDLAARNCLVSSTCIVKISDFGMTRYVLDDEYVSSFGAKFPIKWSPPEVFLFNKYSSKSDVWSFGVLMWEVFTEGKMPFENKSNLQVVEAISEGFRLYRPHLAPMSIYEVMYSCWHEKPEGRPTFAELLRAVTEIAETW
endpoint_label: IC50 (nM)
Provide only the numeric value, understood in nM.

Exam item: Could you share which IC50 value was measured for CN(C(=O)c1ccccc1)c1ccc2c(c1)nc(NC(=O)c1ccc(C#N)cc1)n2CCC(N)=O ?
Marked response: 560

---

Would you kindly list pIC50 for each of these compounds?
biological target: Insulin receptor (Homo sapiens)
Sequence (P06213 28-758 limits assumed): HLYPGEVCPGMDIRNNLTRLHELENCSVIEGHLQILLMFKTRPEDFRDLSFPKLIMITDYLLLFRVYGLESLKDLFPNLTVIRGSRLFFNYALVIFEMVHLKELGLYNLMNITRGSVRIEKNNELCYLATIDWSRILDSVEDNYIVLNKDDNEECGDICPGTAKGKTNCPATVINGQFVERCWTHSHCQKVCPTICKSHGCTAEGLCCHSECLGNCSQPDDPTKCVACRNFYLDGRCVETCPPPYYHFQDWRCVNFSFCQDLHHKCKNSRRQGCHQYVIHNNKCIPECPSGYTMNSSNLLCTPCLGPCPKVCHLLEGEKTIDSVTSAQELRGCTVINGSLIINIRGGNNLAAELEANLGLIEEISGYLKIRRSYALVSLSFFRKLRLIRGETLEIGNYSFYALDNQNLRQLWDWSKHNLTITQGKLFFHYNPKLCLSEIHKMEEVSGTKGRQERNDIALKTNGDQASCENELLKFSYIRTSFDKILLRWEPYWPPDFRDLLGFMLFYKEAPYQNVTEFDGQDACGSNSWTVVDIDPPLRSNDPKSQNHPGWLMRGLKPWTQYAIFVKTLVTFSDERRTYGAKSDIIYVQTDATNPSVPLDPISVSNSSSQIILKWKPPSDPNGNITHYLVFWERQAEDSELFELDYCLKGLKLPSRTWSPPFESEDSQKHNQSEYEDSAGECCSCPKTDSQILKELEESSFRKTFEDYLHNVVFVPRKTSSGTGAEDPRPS
Sequence (P06213 763-1382 limits assumed): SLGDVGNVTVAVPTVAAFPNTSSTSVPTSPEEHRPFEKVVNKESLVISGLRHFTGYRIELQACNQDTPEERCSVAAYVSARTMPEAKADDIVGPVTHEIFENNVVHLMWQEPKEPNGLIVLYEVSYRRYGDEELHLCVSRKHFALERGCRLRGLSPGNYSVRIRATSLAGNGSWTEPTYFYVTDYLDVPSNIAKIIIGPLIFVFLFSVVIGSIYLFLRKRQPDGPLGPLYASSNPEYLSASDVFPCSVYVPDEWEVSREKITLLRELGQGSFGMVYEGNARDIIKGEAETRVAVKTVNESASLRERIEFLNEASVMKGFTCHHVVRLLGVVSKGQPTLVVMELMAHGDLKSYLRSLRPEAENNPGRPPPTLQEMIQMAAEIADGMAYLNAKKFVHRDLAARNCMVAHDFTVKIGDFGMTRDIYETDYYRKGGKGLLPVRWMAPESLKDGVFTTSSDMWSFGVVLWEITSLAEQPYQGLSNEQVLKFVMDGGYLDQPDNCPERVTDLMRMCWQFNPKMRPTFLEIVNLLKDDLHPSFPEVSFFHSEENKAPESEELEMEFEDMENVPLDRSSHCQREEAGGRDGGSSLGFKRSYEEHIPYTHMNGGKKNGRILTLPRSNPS
pIC50: −log10 of the molar value.

Exam item: Could you share which pIC50 value was measured for CN(C(=O)c1ccccc1)c1ccc2c(c1)nc(NC(=O)c1ccc(C#N)cc1)n2CCC(N)=O ?
Marked response: < 5.00

Exam item: Could you share which pIC50 value was measured for CCN(C(=O)c1ccccc1)c1ccc2c(c1)nc(NC(=O)c1ccc(C#N)cc1)n2CCC(N)=O ?
Marked response: < 5.00

Exam item: Could you share which pIC50 value was measured for CN(C(=O)c1ccccc1)c1ccc2c(c1)nc(NC(=O)c1ccno1)n2CCC(N)=O ?
Marked response: < 5.00

---

Target chain: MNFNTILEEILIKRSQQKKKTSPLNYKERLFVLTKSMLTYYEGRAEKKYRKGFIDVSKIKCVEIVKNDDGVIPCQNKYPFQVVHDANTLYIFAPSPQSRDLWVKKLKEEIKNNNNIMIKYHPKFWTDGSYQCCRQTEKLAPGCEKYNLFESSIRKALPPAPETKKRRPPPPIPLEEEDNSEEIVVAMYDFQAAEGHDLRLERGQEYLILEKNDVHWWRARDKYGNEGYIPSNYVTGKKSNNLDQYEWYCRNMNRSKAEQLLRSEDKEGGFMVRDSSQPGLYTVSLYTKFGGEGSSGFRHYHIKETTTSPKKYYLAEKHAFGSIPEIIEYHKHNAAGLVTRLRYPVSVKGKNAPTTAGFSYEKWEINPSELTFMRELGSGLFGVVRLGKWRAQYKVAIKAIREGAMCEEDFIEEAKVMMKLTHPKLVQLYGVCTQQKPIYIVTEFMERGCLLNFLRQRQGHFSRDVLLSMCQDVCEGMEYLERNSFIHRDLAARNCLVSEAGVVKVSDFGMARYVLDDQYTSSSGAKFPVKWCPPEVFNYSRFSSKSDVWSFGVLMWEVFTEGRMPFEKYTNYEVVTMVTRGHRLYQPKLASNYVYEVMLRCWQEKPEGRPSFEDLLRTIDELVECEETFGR
pIC50: −log10 of the molar value.
endpoint_label: pIC50

Exam item: Could you share which pIC50 value was measured for CN(C(=O)c1ccccc1)c1ccc2c(c1)nc(NC(=O)c1ccc(Cl)cc1)n2CCC(N)=O ?
Marked response: < 5.00
